The values you see were collected from patent US20190300590A1.

- experimental system: T1, IL23R_huFC (human, UniProt Q5VWK5 24-353)
- T1 sequence (looked up): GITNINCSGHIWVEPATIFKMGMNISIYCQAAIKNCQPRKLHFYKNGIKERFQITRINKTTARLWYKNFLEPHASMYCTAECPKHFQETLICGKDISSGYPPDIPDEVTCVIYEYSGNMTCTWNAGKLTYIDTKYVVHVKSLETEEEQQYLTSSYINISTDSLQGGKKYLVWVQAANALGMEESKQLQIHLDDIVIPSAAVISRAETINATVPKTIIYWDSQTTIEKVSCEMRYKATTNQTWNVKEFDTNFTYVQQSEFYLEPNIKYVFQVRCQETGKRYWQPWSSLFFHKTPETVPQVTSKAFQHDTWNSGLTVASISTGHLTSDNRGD
- assay details: human ELISA vs IL-23
pIC50: −log10 of the molar value. *1 amine or outer side, *2 acyl side, *3 side chain or, on linkers, in order; H or OH if unused. Bridges are numbered along the chain shown (N, C = ends). [ ]: non-standard residue; d: D form. Phe(3,4-(OMe)2) = COc1ccc(C[C@H](N)C(=O)O)cc1OC; Abu(4-yl) = O=C([C@H](CC[*:3])N[*:1])[*:2]; 2Nal = N[C@@H](Cc1ccc2ccccc2c1)C(=O)O; AEF = NCCOc1ccc(C[C@H](N)C(=O)O)cc1; Pen = CC(C)(S)[C@H](N)C(=O)O; hLeu = CC(C)CC[C@H](N)C(=O)O; αMeK = C[C@](N)(CCCCN)C(=O)O; Abu = CC[C@H](N)C(=O)O; Aib = CC(C)(N)C(=O)O
pIC50 values, listed per item
measurement kind: pIC50

Ac-L[Abu(4-yl)]QTWQC[AEF][2Nal][αMeK]ENN-NH2 (thioether 2-7; SMILES CC(=O)N[C@@H](CC(C)C)C(=O)N[C@H]1CCSC[C@@H](C(=O)N[C@@H](Cc2ccc(OCCN)cc2)C(=O)N[C@@H](Cc2ccc3ccccc3c2)C(=O)N[C@@](C)(CCCCN)C(=O)N[C@@H](CCC(=O)O)C(=O)N[C@@H](CC(N)=O)C(=O)N[C@@H](CC(N)=O)C(N)=O)NC(=O)[C@H](CCC(N)=O)NC(=O)[C@H](Cc2c[nH]c3ccccc23)NC(=O)[C@H]([C@@H](C)O)NC(=O)[C@H](CCC(N)=O)NC1=O) [Ac-Leu-Cyclo-[[Abu]-QTWQC]-[Phe[4-(2-aminoethoxy)]]-[2-Nal]-[α-MeLys]-ENN-NH2]: > 8.00
Ac-[Abu]QTWQ[Pen]YW[hLeu]ENG-NH2 (thioether 1-6) [Ac-Cyclo-[[Abu]-QTWQ-[Pen]]-YW-[hLeu]-ENG-NH2]: < 6.00
Ac-[Abu]QTWQC[AEF][2Nal][Aib]K(Ac)NA-NH2 (thioether 1-6) [Ac-Cyclo-[[Abu]-QTWQC]-[Phe[4-(2-aminoethoxy)]]-[2-Nal]-[Aib]-[Lys(Ac)]-NA-NH2]: > 8.00
Ac-[Abu]QT[Phe(3,4-(OMe)2)]QC[AEF][2Nal][αMeK]ENG-NH2 (thioether 1-6) [Ac-Cyclo-[[Abu]-QT-[Phe(3,4-OMe)]-QC]-[Phe[4-(2-aminoethoxy)]]-[2-Nal]-[α-MeLys]-ENG-NH2]: ~5.52
Ac-[dQ][Abu]QTWQC[AEF][2Nal][αMeK]ENN-NH2 (thioether 2-7) [Ac-[(D)Gln]-Cyclo-[[Abu]-QTWQC]-[Phe[4-(2-aminoethoxy)]]-[2-Nal]-[α-MeLys]-ENN-NH2]: > 8.00
